biological target: T1, human Sortilin expressed on 293 / HEK293T cells (human, UniProt Q99523 78-830); assay: FACS, HEK293T + hSort
T1 construct: full-length recombinant human Sortilin; also called hSort; SORT1
binders and their reported Kd
Give a bare numeral; the unit nM is implied.

// known answers, use as guide
INSERT INTO results (binder, quantity_kind, reported) VALUES
  ('S-22-7 (antibody, V domains shown, IgG) VH: QVQLVQSGAEVKKPGSSVKVSCKASGGTFSSYAISWVRQAPGQGLEWMGGIIPGFGRANYAQKFQGRVTITADESTSTAYMELSSLRSEDTAVYYCARQGRKTGYYYYYGMDVWGQGTTVTVSS VL: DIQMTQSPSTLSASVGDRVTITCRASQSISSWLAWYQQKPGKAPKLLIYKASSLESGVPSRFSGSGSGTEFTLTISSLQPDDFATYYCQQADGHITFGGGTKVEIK', 'Kd', 2.65),
  ('S-15-3 (antibody, V domains shown, IgG) VH: QVQLVQSGAEVKKPGASVKVSCKASGYTFTSTYMSWVRQAPGQGLEWMGIINPYGGSTSYAQKFQGRVTMTRDTSTSTVYMELSSLRSEDTAVYYCARDPSGIAAAGPASRYYYGMDVWGQGTTVTVSS VL: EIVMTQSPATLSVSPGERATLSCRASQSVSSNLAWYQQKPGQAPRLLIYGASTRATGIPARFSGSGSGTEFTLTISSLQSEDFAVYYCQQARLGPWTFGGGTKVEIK', 'Kd', 5.25),
  ('S-22-9 (antibody, V domains shown, IgG) VH: QVQLVQSGAEVKKPGSSVKVSCKASGGTFRNYAISWVRQAPGQGLEWMGGIIPIGGWANYAQKFQGRVTITADESTSTAYMELSSLRSEDTAVYYCARQGRKTGYYYYYGMDVWGQGTTVTVSS VL: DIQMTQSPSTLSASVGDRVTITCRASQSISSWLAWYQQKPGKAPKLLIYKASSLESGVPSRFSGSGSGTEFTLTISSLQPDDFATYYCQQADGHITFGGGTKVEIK', 'Kd', 0.81),
  ('S-2-1 (antibody, V domains shown, IgG) VH: QVQLVQSGAEVKKPGASVKVSCKASGYTFGAYYMHWVRQAPGQGLEWMGWINPNSGFTRYAQKFQGRVTMTRDTSISTAYMELSRLRSDDTAVYYCARGKRSSGWYEGYGMDVWGQGTTVTVSS VL: DIQMTQSPSSLSASVGDRVTITCRASQSISSYLNWYQQKPGKAPKLLIYAASSLQSGVPSRFSGSGSGTDFTLTISSLQPEDFATYYCQQSDVSPITFGGGTKVEIK', 'Kd', 0.691);

Query: Consider the binder S-2-11 (antibody, V domains shown, IgG) VH: QVQLVQSGAEVKKPGASVKVSCKASGYTFLAYYMHWVRQAPGQGLEWMGWINPSWGSTSYAQKFQGRVTMTRDTSISTAYMELSRLRSDDTAVYYCARGKRSSGWYEGYGMDVWGQGTTVTVSS VL: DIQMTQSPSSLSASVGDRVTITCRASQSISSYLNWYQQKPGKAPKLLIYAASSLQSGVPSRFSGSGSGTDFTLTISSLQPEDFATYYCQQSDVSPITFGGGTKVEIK and give its measured Kd.
Reply: 0.377

Query: Record request: Kd value, item S-15-14 (antibody, V domains shown, IgG) VH: QVQLVQSGAEVKKPGASVKVSCKASGYTFTSQYMSWVRQAPGQGLEWMGIINPYGGSTSYAQKFQGRVTMTRDTSTSTVYMELSSLRSEDTAVYYCARDPSGIAAAGPASRYYYGMDVWGQGTTVTVSS VL: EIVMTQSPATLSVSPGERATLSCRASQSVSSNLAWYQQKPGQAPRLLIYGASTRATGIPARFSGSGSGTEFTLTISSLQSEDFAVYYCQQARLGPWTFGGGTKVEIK
Reply: 5.25

Query: For the binder shown here, S-22-3 (antibody, V domains shown, IgG) VH: QVQLVQSGAEVKKPGSSVKVSCKASGGTFRSYAISWVRQAPGQGLEWMGGIIPGFGTAWYAQKFQGRVTITADESTSTAYMELSSLRSEDTAVYYCARQGRKTGYYYYYGMDVWGQGTTVTVSS VL: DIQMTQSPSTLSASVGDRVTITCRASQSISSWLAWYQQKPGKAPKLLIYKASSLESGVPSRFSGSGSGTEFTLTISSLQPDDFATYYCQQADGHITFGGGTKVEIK , give the reported Kd.
Reply: 1.08
